Values from the supplement of paper PMC10567573

Overview of recorded protein stability index for various variants
B1: PTPLAD1 (parent)
chain: YSFYMLTCIDMDWKVLTWLRYTLW

- Variants of: B1
- procedure-text: protein stability index of a GFP-peptide fusion (GPS, HEK-293T) (PSI 1-6); higher = more stable;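 further: lentivirally expressed fusions sorted by FACS into six bins by GFP to DsRed ratio, PSI derived from sequencing read proportions per bin multiplied by bin number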
- experimental-conditions: c terminus: a fixed tail appended
Output: the number by itself.

The cases that follow already have their protein stability index on record.
construct-sequence | protein stability index
YSFYMLTCIDMDWKVLTQLRYTLW | 2.11
YSFYMLTCIDMDWKVLVWLRYTLW | 2.23
YSFYMLTCIDMDWQVLTWLRYTLW | 2.03

Query: Could you tell me which protein stability index is on file for `YSFYMLLCIDMDWKVLTWLRYTLW` ?
Reply: 2.43

Query: Look up protein stability index: `YSFYMLICIDMDWKVLTWLRYTLW`
Reply: 2.86

Query: Please report the recorded protein stability index for `YSFYMLTNIDMDWKVLTWLRYTLW` .
Reply: 2.97

Query: Can you share its protein stability index? I mean this variant: `YSFYMLTCIDMDWKVLTWLRYTLC`
Reply: 2.42

Query: If you can, please state the reported protein stability index value of `YSFYMLTCIDMDWKVLTTLRYTLW` .
Reply: 3.35
